Data provenance: PubChem BioAssay AID651679

# Measurement target: Adenosylmethionine-8-amino-7-oxononanoate aminotransferase (Mycobacterium tuberculosis (strain ATCC 25618 / H37Rv))
# Test summary: Mtb BioA enzyme inhibitors, dose response, biochemical, plate reader, cherry-pick samples, set 03 (AID 651679);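 also: top concentration of the dilution series was 10 µM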
# Assay context: purified BioA enzyme
The list shows a part of the results. Active and inactive are the calls of the source. No rule for the calls is given here.
Quantity name: max activity

> print(dat)
                                chem.smiles                 reported.value
1  CS(=O)(=O)N1[C@H](C(=O)NCc2ccncc2)[C@@H](CO)[C@@H]2Cn3c(ccc(C4=CCCCC4)c3=O)[C@@H]21               4.42% (inactive)
2  Cc1c2cnn(CC(=O)NCc3ccccn3)c(=O)c2c(C)n1Cc1ccc(Cl)cc1   -3.46% [at 10 µM] (inactive)
3  CC(=O)O[C@]1(C(C)=O)CC[C@H]2[C@@H]3C=C(C)C4=CC(=O)CC[C@]4(C)[C@H]3CC[C@@]21C  -6.47% [at 0.6 µM] (inactive)
4  COc1cc(-c2n[nH]c(=S)n2Cc2ccccc2)cc(OC)c1OC  -6.94% [at 0.6 µM] (inactive)
5         CC1(C)CC(=O)C=C(c2ccc3ncccc3c2)C1               -6.7% (inactive)
6  O=C(CSc1n[nH]c(-c2cccnc2)n1)Nc1ccnc2ccccc12              -8.45% (inactive)
7  O=c1[nH]c(N2CCN(Cc3ccc4c(c3)OCO4)CC2)nc2c1CCCC2    -3.93% [at 5 µM] (inactive)
8  CC(=O)c1ccc(N2CCN(C(=O)c3ccc4nc[nH]c4c3)CC2)cc1    5.95% [at 10 µM] (inactive)
9  COCCNC(=O)C[C@H]1CC[C@@H]2[C@H](COc3ccc(NC(=O)Nc4cccc(F)c4)cc3C(=O)N2C)O1                9.1% (inactive)

====

# Measurement target: Adenosylmethionine-8-amino-7-oxononanoate aminotransferase (Mycobacterium tuberculosis (strain ATCC 25618 / H37Rv)) (UniProt P9WQ81)
# Sequence (P9WQ81 whole entry, looked up): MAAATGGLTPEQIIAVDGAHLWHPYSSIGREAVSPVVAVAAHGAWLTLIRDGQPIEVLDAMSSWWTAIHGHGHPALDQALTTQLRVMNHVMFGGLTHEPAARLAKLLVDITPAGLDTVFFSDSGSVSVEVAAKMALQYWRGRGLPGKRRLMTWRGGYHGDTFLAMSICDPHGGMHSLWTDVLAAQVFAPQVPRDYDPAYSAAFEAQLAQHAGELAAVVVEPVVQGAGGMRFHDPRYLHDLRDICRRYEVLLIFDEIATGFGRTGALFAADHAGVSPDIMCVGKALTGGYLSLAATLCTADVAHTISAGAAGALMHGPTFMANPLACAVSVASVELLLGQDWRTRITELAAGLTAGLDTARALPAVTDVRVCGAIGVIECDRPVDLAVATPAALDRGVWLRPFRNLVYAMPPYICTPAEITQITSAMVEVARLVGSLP
# Test summary: Mtb BioA enzyme inhibitors, dose response, biochemical, plate reader, cherry-pick samples, set 03 (AID 651679);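 also: top concentration of the dilution series was 10 µM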
# Assay context: purified BioA enzyme
The list shows a part of the results. Activity calls are given as the source filed them. No rule for the calls is given here.
Below, each entry is listed with its recorded max activity.
Quantity name: max activity

> print(dat)
                                chem.smiles  quantity.name                  reported.value
1  Cc1nc(=O)c(-c2ccccc2)c(C)n1-c1ccc(Br)cc1   max activity  -5.48% [at 0.08 µM] (inactive)
2  O=C(c1ccncc1)N1CC[C@@H]2[C@H]1c1cc(Br)ccc1N[C@@H]2CO   max activity               -4.43% (inactive)
3  C=CCn1c(SCc2c(C(=O)OC)sc(N)c2C(=O)OC)nnc1-c1ccc(Cl)cc1   max activity               -8.75% (inactive)
